Measurement notes: Solubility in aqueous medium by 1H-NMR of saturated solutions
Measurement context: water
Method: Solubilities: Determination of substance solubilities were performed through ^1H-NMR spectroscopy with a Bruker Avance III NMR-spectrometer at 600 MHz. […] Solubility was determined by the ratio of integrated solvent to substance peak. Solubility values are presented as averages over the recorded samples with the error margin according to their standard deviation. […] Solubilities were determined with 1H-NMR. […] database. […] Solubilities were calculated by the following […]
Parameter measured: solubility thermodynamic at 3 days (mg/mL)
The response must be a number in mg/mL with no trailing unit.

Some molecules with recorded solubility thermodynamic at 3 days:
Identify solubility thermodynamic at 3 days associated with the molecule NCC1(CC(=O)O)CCCCC1 [compound 2, Gabapentin, reference compound] 174

Hello, please tell me recorded solubility thermodynamic at 3 days for this one: NCC(CC(=O)O)c1ccccc1 (stereo not drawn) [compound 4, Phenibut, reference compound] 15

State, in one line, measured solubility thermodynamic at 3 days of CC(C)C[C@H](CN)CC(=O)O [(S)-3, (S)-Pregabalin, reference compound] 41

Others:
State, in one line, measured solubility thermodynamic at 3 days of CC(C)CC(CN)CC(=O)O (racemic) [(rac)-3•H2O, (rac)-Pregabalin hydrate, reference compound] 33

Write down solubility thermodynamic at 3 days measured for item O=C(O)/C=C\C(=O)O 687

In one line, give reported solubility thermodynamic at 3 days of the entry NCC(CC(=O)O)c1ccc(Cl)cc1 (stereo not drawn) [compound 5, Baclofen, reference compound] . 3

----------
Measurement notes: Solubility in aqueous medium by 1H-NMR of saturated solutions
Measurement context: API solubility, aqueous medium, 25 °C, saturated solutions after three days, 1H-NMR, average of three samples; _M = mechanochemically prepared sample
Below, each entry is listed alongside its reported Solubility.
The reply should contain only the number, in gL^−1.

Annotate the molecule NCC(CC(=O)O)c1ccc(Cl)cc1.O=C(O)C=CC(=O)O (stereo not shown) [5-MA, Baclofen maleate] with its measured Solubility. 6

Please report the measured Solubility for NCC1(CC(=O)O)CCCCC1.O=C(O)C=CC(=O)O [2-MA, Gabapentin maleate] 218

Identify measured Solubility corresponding to NCC(CC(=O)O)c1ccccc1.O=C(O)C=CC(=O)O (stereo not shown) [4-MA, Phenibut maleate] 124

Attention now turns to another entry.
Report Solubility for CC(C)CC(CN)CC(=O)O.O=C(O)C=CC(=O)O (racemic) [(rac)-3-MA, (rac)-Pregabalin maleate] 719

----------
Measurement notes: Solubility in aqueous medium by 1H-NMR of saturated solutions
Measurement context: Table S7; water, 25 °C, three days, three samples; _sol = solvent crystallization, _mill = grinding
Parameter measured: Sp ± V (solubility of the API ± standard deviation) (gL-1)
API: value field is a number in gL-1; no unit string.

Supply measured Sp ± V (solubility of the API ± standard deviation) of NCC(CC(=O)O)c1ccccc1 (centres unmarked) [compound 4, Phenibut, reference compound] in your reply. 15

Annotate the compound CC(C)C[C@H](CN)CC(=O)O [(S)-3, (S)-Pregabalin, reference compound] with its measured Sp ± V (solubility of the API ± standard deviation). 41

Return Sp ± V (solubility of the API ± standard deviation) for the following compound: NCC1(CC(=O)O)CCCCC1.O=C(O)C=CC(=O)O [2-MA, Gabapentin maleate] 218

Note Sp ± V (solubility of the API ± standard deviation) for the compound shown: CC(C)CC(CN)CC(=O)O (racemic) [(rac)-3•H2O, (rac)-Pregabalin hydrate, reference compound] 33

Please look at the following compound next.
Write down Sp ± V (solubility of the API ± standard deviation) measured for item NCC1(CC(=O)O)CCCCC1 [compound 2, Gabapentin, reference compound] 174
